The reported measurements were obtained from patent US8680290B2.

The following compounds are listed with their measured herbicidal action (damage rating 0-10), Amaranthus values.
Test system: Monocotyledonous and dicotyledonous test plants
Assay: Example B1 herbicidal action, application pre-emergence (Table B1b)
Type: in vivo
Conditions: Amaranthus, 250 g/ha, evaluated after 4 weeks
// no unit, no text: just the number

Challenge: Any idea what its herbicidal action (damage rating 0-10), Amaranthus is? The compound is CC1(C)CC(S(=O)(=O)C(C)(Cl)c2c(F)cccc2F)=NO1 (centres unmarked)
Response given: 10

Challenge: Any idea what its herbicidal action (damage rating 0-10), Amaranthus is? The compound is CC1(C)CC(S(=O)(=O)C(I)c2c(F)cccc2F)=NO1 (centres unmarked)
Response given: 10

Challenge: Any idea what its herbicidal action (damage rating 0-10), Amaranthus is? The compound is CC1(C)CC(S(=O)(=O)C(Br)c2ccccc2F)=NO1 (racemic)
Response given: 10

More entries:
Challenge: Any idea what its herbicidal action (damage rating 0-10), Amaranthus is? The compound is `CC1(C)CC(S(=O)(=O)C2(c3c(F)cccc3F)CC2)=NO1`
Response given: 2

Challenge: Any idea what its herbicidal action (damage rating 0-10), Amaranthus is? The compound is CC1(C)CC(S(=O)(=O)C(C(=O)C(F)F)c2c(F)cccc2F)=NO1 (centres unmarked)
Response given: 9

====

Tested on: Monocotyledonous and dicotyledonous test plants
Experiment: Example B1 herbicidal action, application post-emergence (Table B1a)
Assay type: in vivo
Details: Sida, 250 g/ha, evaluated after 3 weeks, scale 0-10
Protocol: Monocotyledonous and dicotyledonous test plants were sown in seed trays in standard soil. […] After a test duration of 3 weeks (post-emergence) or 4 weeks (pre-emergence), the test was evaluated (10=total damage to plant, 0=no damage to plant).
ASSAY_ENDPOINT: herbicidal damage rating, Sida
// no unit, no text: just the number

Check out these entries, answers already filled in.
Challenge: Any idea what its herbicidal damage rating, Sida is? The compound is CC1(C)CC(S(=O)(=O)C(Cl)c2ccccc2OC(F)(F)F)=NO1 (stereo not shown)
Response given: 2

Challenge: Any idea what its herbicidal damage rating, Sida is? The compound is Cc1ccc(F)c(C(F)S(=O)(=O)C2=NOC(C)(C)C2)c1F (stereo not shown)
Response given: 7

Challenge: Any idea what its herbicidal damage rating, Sida is? The compound is `CC1(C)CC(S(=O)(=O)C(F)(F)c2ccccc2)=NO1`
Response given: 3

Challenge: Any idea what its herbicidal damage rating, Sida is? The compound is CC1(C)CC([S+]([O-])C(Cl)c2c(F)cccc2Cl)=NO1 (single isomer, unassigned)
Response given: 3

Challenge: Any idea what its herbicidal damage rating, Sida is? The compound is COc1cc(OC)cc(C(F)(Cl)S(=O)(=O)C2=NOC(C)(C)C2)c1 (racemic)
Response given: 2

More entries:
Challenge: Any idea what its herbicidal damage rating, Sida is? The compound is Cn1nc(C(F)(F)F)c(C(F)(Cl)S(=O)(=O)C2=NOC(C)(C)C2)c1OC(F)F (stereo not shown)
Response given: 7

Challenge: Any idea what its herbicidal damage rating, Sida is? The compound is `Cn1nc(C(F)(F)F)c(C(Br)(Br)S(=O)(=O)C2=NOC(C)(C)C2)c1OCC(F)(F)F`
Response given: 2

Challenge: Any idea what its herbicidal damage rating, Sida is? The compound is C=C(OC(C)=O)C(F)(c1c(F)cccc1F)S(=O)(=O)C1=NOC(C)(C)C1 (racemic)
Response given: 5

Challenge: Any idea what its herbicidal damage rating, Sida is? The compound is `Cn1nc(C(F)(F)F)c(C(F)(F)S(=O)(=O)C2=NOC(C)(C)C2)c1OCC(F)(F)F`
Response given: 6

Challenge: Any idea what its herbicidal damage rating, Sida is? The compound is COCCC(c1c(F)cccc1F)S(=O)(=O)C1=NOC(C)(C)C1 (stereo not shown)
Response given: 5

====

The following molecules are listed with their measured herbicidal damage rating, Sida values.
Test system: Monocotyledonous and dicotyledonous test plants
Assay: Example B1 herbicidal action, application post-emergence (Table B1a)
Type: in vivo
Settings: Sida, 250 g/ha, evaluated after 3 weeks, scale 0-10
Description: Monocotyledonous and dicotyledonous test plants were sown in seed trays in standard soil. […] After a test duration of 3 weeks (post-emergence) or 4 weeks (pre-emergence), the test was evaluated (10=total damage to plant, 0=no damage to plant).
// no unit, no text: just the number

Check out these entries, answers already filled in.
Challenge: Any idea what its herbicidal damage rating, Sida is? The molecule is CC1(C)CC(S(=O)(=O)C(F)(Cl)c2ccccc2)=NO1 (racemic) [1.75]
Response given: 4

Challenge: Any idea what its herbicidal damage rating, Sida is? The molecule is CC1(C)CC(S(=O)(=O)C(F)(Cl)c2ccc(F)cc2F)=NO1 (stereo not drawn) [1.133]
Response given: 4

Moving on to another molecule below.
Challenge: Any idea what its herbicidal damage rating, Sida is? The molecule is COC(=O)c1ccc(C(F)(F)S(=O)(=O)C2=NOC(C)(C)C2)c(F)c1 [1.119]
Response given: 4

====

The following compounds are listed with their measured herbicidal action (damage rating 0-10), Digitaria values.
Test system: Monocotyledonous and dicotyledonous test plants
Test: Example B1 herbicidal action, application pre-emergence (Table B1b)
Format: in vivo
Settings: Digitaria, 250 g/ha, evaluated after 4 weeks
// no unit, no text: just the number

Check out these entries, answers already filled in.
Challenge: Recall the recorded herbicidal action (damage rating 0-10), Digitaria for Cc1nsc(C#N)c1C(F)S(=O)(=O)C1=NOC(C)(C)C1 (centres unmarked) [Compound No. 3.01] with Monocotyledonous and dicotyledonous test plants and state it.
Response given: 8

Challenge: Recall the recorded herbicidal action (damage rating 0-10), Digitaria for CC1(C)CC(S(=O)(=O)C(Br)(Br)c2c(F)cccc2F)=NO1 [1.50] with Monocotyledonous and dicotyledonous test plants and state it.
Response given: 9

More entries:
Challenge: Recall the recorded herbicidal action (damage rating 0-10), Digitaria for CC1(C)CC([S+]([O-])C(c2c(F)cccc2F)C(F)(F)F)=NO1 (centres unmarked) [1.139] with Monocotyledonous and dicotyledonous test plants and state it.
Response given: 8

Challenge: Recall the recorded herbicidal action (damage rating 0-10), Digitaria for Cc1cccc(C(Cl)(Cl)S(=O)(=O)C2=NOC(C)(C)C2)c1 [Compound No. 1.31] with Monocotyledonous and dicotyledonous test plants and state it.
Response given: 9

Challenge: Recall the recorded herbicidal action (damage rating 0-10), Digitaria for CC1(C)CC(S(=O)(=O)C(F)(Cl)c2c(F)cccc2F)=NO1 (centres unmarked) [Compound No. 1.21] with Monocotyledonous and dicotyledonous test plants and state it.
Response given: 10

Challenge: Recall the recorded herbicidal action (damage rating 0-10), Digitaria for CC1(C)CC(S(=O)(=O)C(Br)c2ccccc2-c2ccccc2)=NO1 (centres unmarked) [1.151] with Monocotyledonous and dicotyledonous test plants and state it.
Response given: 0

====

The following compounds are listed with their measured melting point values.

Challenge: Any idea what its melting point is? The compound is Cn1cc(C(F)(F)F)c(C(F)S(=O)(=O)C2=NOC(C)(C)C2)n1 (centres unmarked) [Compound No. 4.04]
Response given: 117 to 118 °C

More entries:
Challenge: Any idea what its melting point is? The compound is Cc1c(Br)noc1C(F)(F)S(=O)(=O)C1=NOC(C)(C)C1 [Compound No. 5.06]
Response given: 70 to 75 °C

Challenge: Any idea what its melting point is? The compound is COc1cc(C(F)S(=O)(=O)C2=NOC(C)(C)C2)on1 (centres unmarked) [Compound No. 5.03]
Response given: 99 °C

Challenge: Any idea what its melting point is? The compound is CC1(C)CC(S(=O)(=O)C(C)(F)c2ccccc2)=NO1 (centres unmarked) [Compound No. 1.138]
Response given: 91 to 93 °C

Challenge: Any idea what its melting point is? The compound is Cn1cc(C(F)(F)F)c(C(F)(F)S(=O)(=O)C2=NOC(C)(C)C2)n1 [Compound No. 4.05]
Response given: 101 to 103 °C

====

System: Monocotyledonous and dicotyledonous test plants
Assay: Example B1 herbicidal action, application pre-emergence (Table B1b)
Format: in vivo
Conditions: Digitaria, 250 g/ha, evaluated after 4 weeks
The following compounds are listed with their measured herbicidal action (damage rating 0-10), Digitaria values.
// no unit, no text: just the number

Challenge: Any idea what its herbicidal action (damage rating 0-10), Digitaria is? The compound is CC1(C)CC(S(=O)(=O)C(F)(Cl)c2ccccc2OC(F)(F)F)=NO1 (centres unmarked)
Response given: 10

Challenge: Any idea what its herbicidal action (damage rating 0-10), Digitaria is? The compound is `CC1(C)CC(S(=O)(=O)C(F)(F)c2cc(F)ccc2F)=NO1`
Response given: 10

Challenge: Any idea what its herbicidal action (damage rating 0-10), Digitaria is? The compound is CC1(C)CC(S(=O)(=O)C(F)(Cl)c2ccccc2F)=NO1 (racemic)
Response given: 10

More entries:
Challenge: Any idea what its herbicidal action (damage rating 0-10), Digitaria is? The compound is CC1(C)CC(S(=O)(=O)C(F)c2c(F)cccc2F)=NO1 (centres unmarked)
Response given: 5

Challenge: Any idea what its herbicidal action (damage rating 0-10), Digitaria is? The compound is CC1(C)CC(S(=O)(=O)C(F)c2cc(F)cc3c2OCOC3)=NO1 (centres unmarked)
Response given: 7

Challenge: Any idea what its herbicidal action (damage rating 0-10), Digitaria is? The compound is COc1cc(OC)cc(C(F)(Cl)S(=O)(=O)C2=NOC(C)(C)C2)c1 (racemic)
Response given: 10

Challenge: Any idea what its herbicidal action (damage rating 0-10), Digitaria is? The compound is Cn1nc(C(F)(F)F)c(C(Cl)S(=O)(=O)C2=NOC(C)(C)C2)c1Cl (centres unmarked)
Response given: 9

Challenge: Any idea what its herbicidal action (damage rating 0-10), Digitaria is? The compound is `Cn1nc(C(F)(F)F)c(C(Br)(Br)S(=O)(=O)C2=NOC(C)(C)C2)c1OCC(F)(F)F`
Response given: 10
